Biological target: PmIleRS2 (Priestia megaterium, UniProt A0A0B6AVD3)
Sequence (A0A0B6AVD3 1-1032): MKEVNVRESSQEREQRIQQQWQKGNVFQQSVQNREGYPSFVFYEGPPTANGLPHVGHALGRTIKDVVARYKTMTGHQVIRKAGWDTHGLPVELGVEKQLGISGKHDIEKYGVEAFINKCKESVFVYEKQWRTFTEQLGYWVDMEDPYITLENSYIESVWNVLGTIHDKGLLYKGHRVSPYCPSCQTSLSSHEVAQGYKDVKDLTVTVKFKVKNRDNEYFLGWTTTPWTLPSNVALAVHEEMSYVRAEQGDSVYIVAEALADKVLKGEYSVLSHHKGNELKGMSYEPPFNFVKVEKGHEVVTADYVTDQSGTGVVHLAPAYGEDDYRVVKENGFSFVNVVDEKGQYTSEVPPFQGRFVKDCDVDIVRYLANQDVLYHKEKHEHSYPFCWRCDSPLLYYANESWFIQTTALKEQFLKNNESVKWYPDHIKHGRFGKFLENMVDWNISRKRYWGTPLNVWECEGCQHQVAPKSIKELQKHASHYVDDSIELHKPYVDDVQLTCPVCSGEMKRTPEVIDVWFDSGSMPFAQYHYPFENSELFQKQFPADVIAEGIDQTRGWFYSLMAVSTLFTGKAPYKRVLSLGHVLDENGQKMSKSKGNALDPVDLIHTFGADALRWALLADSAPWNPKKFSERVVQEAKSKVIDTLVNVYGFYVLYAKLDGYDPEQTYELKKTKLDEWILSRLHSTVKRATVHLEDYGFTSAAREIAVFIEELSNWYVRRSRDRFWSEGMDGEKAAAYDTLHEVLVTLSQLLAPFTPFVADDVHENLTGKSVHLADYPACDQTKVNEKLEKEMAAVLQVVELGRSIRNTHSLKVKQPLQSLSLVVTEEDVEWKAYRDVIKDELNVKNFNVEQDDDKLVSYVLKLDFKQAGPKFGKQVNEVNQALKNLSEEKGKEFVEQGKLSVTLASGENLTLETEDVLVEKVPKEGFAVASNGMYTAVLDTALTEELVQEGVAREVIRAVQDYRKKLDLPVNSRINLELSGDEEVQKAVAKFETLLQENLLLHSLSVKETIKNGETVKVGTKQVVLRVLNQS
Assay: biochemical
readout_kind: Ki
Units required after the number.

// Ki lookup, compound = C/C(=C\C(=O)OCCCCCCCCC(=O)O)C[C@@H]1OC[C@H](C[C@@H]2O[C@H]2[C@@H](C)[C@H](C)O)[C@@H](O)[C@H]1O , result: 1080 nM

----------
Biological target: PmIleRS1 (Priestia megaterium, UniProt A0A0B6A6A8)
Sequence (A0A0B6A6A8 1-921): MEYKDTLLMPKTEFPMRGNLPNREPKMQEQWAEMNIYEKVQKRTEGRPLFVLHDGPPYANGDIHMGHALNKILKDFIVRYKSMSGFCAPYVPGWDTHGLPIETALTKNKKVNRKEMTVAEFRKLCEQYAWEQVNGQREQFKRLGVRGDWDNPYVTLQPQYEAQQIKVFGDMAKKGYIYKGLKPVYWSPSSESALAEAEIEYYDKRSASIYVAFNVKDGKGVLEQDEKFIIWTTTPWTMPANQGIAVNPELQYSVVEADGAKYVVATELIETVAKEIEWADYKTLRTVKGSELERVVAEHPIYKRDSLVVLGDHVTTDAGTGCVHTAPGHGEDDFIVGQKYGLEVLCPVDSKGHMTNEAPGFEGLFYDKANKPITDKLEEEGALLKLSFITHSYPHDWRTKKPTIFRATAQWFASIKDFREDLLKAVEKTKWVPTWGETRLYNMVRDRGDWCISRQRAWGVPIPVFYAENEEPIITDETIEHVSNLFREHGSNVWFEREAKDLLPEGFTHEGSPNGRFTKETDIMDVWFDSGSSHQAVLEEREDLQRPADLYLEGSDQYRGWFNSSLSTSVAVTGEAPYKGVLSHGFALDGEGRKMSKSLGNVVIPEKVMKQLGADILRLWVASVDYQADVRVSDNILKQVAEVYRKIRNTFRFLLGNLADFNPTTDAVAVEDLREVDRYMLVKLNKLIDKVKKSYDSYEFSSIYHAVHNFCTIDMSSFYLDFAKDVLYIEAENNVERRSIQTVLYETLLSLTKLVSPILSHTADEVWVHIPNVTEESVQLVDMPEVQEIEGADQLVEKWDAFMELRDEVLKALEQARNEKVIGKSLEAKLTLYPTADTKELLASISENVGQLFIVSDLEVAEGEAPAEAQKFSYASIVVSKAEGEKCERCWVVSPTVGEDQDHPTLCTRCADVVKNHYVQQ
readout_kind: pKi
Numbers only, as −log10 of the molar value.

Bench note, PmIleRS1 (Priestia megaterium, UniProt A0A0B6A6A8): entry C/C(=C\C(=O)OCCCCCCCCC(=O)O)C[C@@H]1OC[C@H](C[C@@H]2O[C@H]2[C@@H](C)[C@H](C)O)[C@@H](O)[C@H]1O [mupirocin] , its pKi = 9.55

----------
target: PmIleRS2 (Priestia megaterium, UniProt A0A0B6AVD3); experiment: biochemical
readout_kind: Ki
The answer should read as a number with its unit following.

So the reported Ki for C/C(=C\C(=O)OCCCCCCCCC(=O)O)C[C@@H]1OC[C@H](C[C@@H]2O[C@H]2[C@@H](C)[C@H](C)O)[C@@H](O)[C@H]1O , on PmIleRS2 (Priestia megaterium, UniProt A0A0B6AVD3), turned out to be 1040 nM
